methodNotes: NCI Yeast Anticancer Drug Screen. Data for the sgs1 mgt1 strain (AID 161);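 further: 0% = growth of cultures given vehicle only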
experimentalParameters: S. cerevisiae sgs1 mgt1 strain, at 50.0 µM (retest, dose inferred, filed as 5.0), stronger effect = higher value
This is part of a sample that, as a whole, favours compounds with a hit. Of some 79,000 tested, about 15% had one in any assay.
measurementKind: growth inhibition (%)
Dear colleague, please return just the value in %, with no unit written.

Some solved entries appear below for comparison.
• COc1cc(OC)c(C2CC(C)(OC)Oc3cc4c(cc32)OCO4)c(OC)c1 (centres undefined) = 12
• [N-]=[N+]=Nc1ccc(SN2C(=O)c3ccccc3C2=O)cc1 = 98
• C=CCOC(=O)C#CCCCC = 2

Next compound, please.
I have this compound here, c1ccc([Si](C[CH2][Sn]([c]2ccccc2)([c]2ccccc2)[c]2ccccc2)(c2ccccc2)c2ccc([Si](C[CH2][Sn]([c]3ccccc3)([c]3ccccc3)[c]3ccccc3)(c3ccccc3)c3ccccc3)cc2)cc1 , and I need its recorded growth inhibition.
98

Source: PubChem BioAssay (NCI)
